# Subject of test: PME-1 (Protein phosphatase methylesterase 1) (Homo sapiens)
# Sequence (Q9Y570 whole entry, species assumed): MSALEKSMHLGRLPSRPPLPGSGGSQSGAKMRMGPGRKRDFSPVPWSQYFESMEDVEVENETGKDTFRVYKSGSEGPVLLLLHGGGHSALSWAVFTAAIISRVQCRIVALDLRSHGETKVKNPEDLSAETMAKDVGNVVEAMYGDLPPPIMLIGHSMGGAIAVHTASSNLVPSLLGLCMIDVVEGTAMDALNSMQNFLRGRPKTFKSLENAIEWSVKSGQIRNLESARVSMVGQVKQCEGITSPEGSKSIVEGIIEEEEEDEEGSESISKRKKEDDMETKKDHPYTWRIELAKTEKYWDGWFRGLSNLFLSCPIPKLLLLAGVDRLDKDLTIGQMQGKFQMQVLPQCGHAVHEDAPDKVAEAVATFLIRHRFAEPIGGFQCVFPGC
# Assay text: Demethylation of PP2A by PME-1, radioactive filter binding assay
# Format: biochemical
# Run conditions: GSE flavonoids / grape seed components; read-out: IC50, PP2A demethylation activity assay
pIC50: −log10 of the molar value.
Measured parameter: pIC50

In the examples that follow, each entry is paired with its recorded pIC50.
Record summary for O=c1c(O)c(-c2ccc(O)c(O)c2)oc2c(O)c(O)cc(O)c12 : reported pIC50 = 5.31

The measured pIC50 associated with Oc1cc(O)cc(O)c1 reads < 4.82

Sure, the documented pIC50 for O=c1c(O[C@@H]2O[C@H](CO)[C@@H](O)[C@H](O)[C@H]2O)c(-c2ccc(O)c(O)c2)oc2cc(O)cc(O)c12 is < 4.82

More entries:
// pIC50 value for C=C[C@@]1(C)CC(=O)[C@]2(O)[C@@]3(C)[C@@H](O)CCC(C)(C)[C@@H]3[C@H](O)[C@H](OC(C)=O)[C@@]2(C)O1 : < 4.60

The compound identified as COc1cc(-c2oc3cc(O)cc(O)c3c(=O)c2O)ccc1O [3,5,7,4′-Tetrahydroxy-3′-methoxyflavone] registered its pIC50 at < 4.82

GET /value?item= O=c1c(-c2ccc(O)cc2)coc2cc(O)ccc12 &field=pIC50 returns < 4.82

According to the records, this compound O=c1c(-c2ccc(O)cc2)coc2cc(O[C@@H]3O[C@H](CO)[C@@H](O)[C@H](O)[C@H]3O)ccc12 displays pIC50 of < 4.82

Looking up CC(C)(C)C(O)(CCc1ccc(Cl)cc1)Cn1cncn1 (centres unmarked) , I found its pIC50 recorded as < 4.82
